- Test system: A549
- assay.method.text: Cytotoxicity against human A549 cells expressing high level of topoisomerase I/II measured after 72 hrs by MTT assay
- Type: functional, cell-based
- condition.notes: A549, 72 h
value.type: IC50 (µM)
Give bare numbers, in µM.

Some solved entries appear below for comparison.
# return recorded IC50 for input O=C1c2c[n+]([O-])c3ccccc3c2C(=O)c2c1c1ccccc1n2Cc1cn([C@H]2C[C@H](O)[C@@H](CO)O2)nn1 0.35

# return recorded IC50 for input CC(=O)OC[C@H]1O[C@H](n2cc(Cn3c4c(c5ccccc53)C(=O)c3c[n+]([O-])c5ccccc5c3C4=O)nn2)[C@H](OC(C)=O)[C@@H]1OC(C)=O 0.43

# return recorded IC50 for input CC(=O)OC[C@H]1O[C@@H](n2cc(Cn3c4c(c5ccccc53)C(=O)c3c[n+]([O-])c5ccccc5c3C4=O)nn2)C[C@@H]1OC(C)=O 1.83

# return recorded IC50 for input O=C1c2c[n+]([O-])c3ccccc3c2C(=O)c2c1c1ccccc1n2Cc1cn(C[C@H](O)CO)nn1 1.03

# return recorded IC50 for input CN(C)CCn1c2c(c3ccccc31)C(=O)c1c[n+]([O-])c3ccccc3c1C2=O 0.2

# return recorded IC50 for input CCCN1CCN(CCCCn2c3c(c4ccccc42)C(=O)c2c[n+]([O-])c4ccccc4c2C3=O)CC1 0.32

# return recorded IC50 for input O=C1c2c[n+]([O-])c3ccccc3c2C(=O)c2c1c1ccccc1n2CCCCN1CCNCC1 0.54

# return recorded IC50 for input O=C1c2c[n+]([O-])c3ccccc3c2C(=O)c2c1c1ccccc1n2Cc1cn([C@@H]2C[C@H](O)[C@@H](CO)O2)nn1 0.12

# return recorded IC50 for input CC1(C)O[C@@H](CO)[C@H](Cn2cc(Cn3c4c(c5ccccc53)C(=O)c3c[n+]([O-])c5ccccc5c3C4=O)nn2)O1 0.37

# return recorded IC50 for input O=C1c2c[n+]([O-])c3ccccc3c2C(=O)c2c1c1ccccc1n2CCN1CCCC1 0.41

The following compounds each have a reported value; give each one's IC50.
1. CN1CCN(CCCCn2c3c(c4ccccc42)C(=O)c2c[n+]([O-])c4ccccc4c2C3=O)CC1
2. O=C1c2c[n+]([O-])c3ccccc3c2C(=O)c2c1c1ccccc1n2CCCCn1ccnc1
3. CCCCN1CCN(CCCCn2c3c(c4ccccc42)C(=O)c2c[n+]([O-])c4ccccc4c2C3=O)CC1
4. CN(C)CCCCCn1c2c(c3ccccc31)C(=O)c1c[n+]([O-])c3ccccc3c1C2=O
5. COc1cc([C@@H]2c3cc4c(cc3[C@@H](O[C@@H]3O[C@@H]5CO[C@@H](C)O[C@H]5[C@H](O)[C@H]3O)[C@H]3COC(=O)[C@H]23)OCO4)cc(OC)c1O [ETOPOSIDE]

0.09
0.17
0.55
0.21
0.6

The following compounds each have a reported value; give each one's IC50.
1. O=C1c2c[n+]([O-])c3ccccc3c2C(=O)c2c1c1ccccc1n2CCCCN1CCCCC1
2. CC1(C)OC[C@@H](Cn2cc(Cn3c4c(c5ccccc53)C(=O)c3c[n+]([O-])c5ccccc5c3C4=O)nn2)O1
3. O=C1c2c[n+]([O-])c3ccccc3c2C(=O)c2c1c1ccccc1n2CCCCCN1CCOCC1
4. O=C1c2c[n+]([O-])c3ccccc3c2C(=O)c2c1c1ccccc1n2CCCCN1CCN(CCO)CC1
5. CN1CCN(CCCCCCn2c3c(c4ccccc42)C(=O)c2c[n+]([O-])c4ccccc4c2C3=O)CC1
6. CC(=O)OC[C@H]1O[C@H](n2cc(Cn3c4c(c5ccccc53)C(=O)c3c[n+]([O-])c5ccccc5c3C4=O)nn2)C[C@@H]1OC(C)=O

1. 0.15
2. 4.7
3. 0.13
4. 0.2
5. 0.33
6. 1.14

The following compounds each have a reported value; give each one's IC50.
1. CN1CCN(CCCCCn2c3c(c4ccccc42)C(=O)c2c[n+]([O-])c4ccccc4c2C3=O)CC1
2. CC[C@@]1(O)C(=O)OCc2c1cc1n(c2=O)Cc2cc3ccccc3nc2-1 [CAMPTOTHECIN]
3. CC1(C)OC[C@H](Cn2cc(Cn3c4c(c5ccccc53)C(=O)c3c[n+]([O-])c5ccccc5c3C4=O)nn2)O1
4. O=C1c2c[n+]([O-])c3ccccc3c2C(=O)c2c1c1ccccc1n2Cc1cn([C@@H]2O[C@H](CO)[C@@H](O)[C@H](O)[C@H]2O)nn1

[0.87, 0.37, 0.34, 0.56]

# return recorded IC50 for input O=C1c2c[n+]([O-])c3ccccc3c2C(=O)c2c1c1ccccc1n2CCN1CCCCC1 1.08
